Item-by-item account of GI50
# Tested on: HL-60(TB) leukemia
# test method notes: NCI tumour cell line growth inhibition, 48 h

INSERT INTO measurements (compound, assayed_target, endpoint_result) VALUES
  ('Cn1cc(C2=C(c3cn(CCCN)c4ccccc34)C(=O)NC2=O)c2ccccc21', 'HL-60(TB) leukemia', '5.04 µM'),
  ('CCOc1ccc(C(C[N+](=O)[O-])Sc2ccccc2N)cc1 (stereo not given)', 'HL-60(TB) leukemia', '2.27 µM'),
  ('CC1=C(C(=O)Nc2ccc(F)c(Cl)c2)C(c2cccc(Oc3ccccc3)c2)NC(=S)N1 (stereo not given)', 'HL-60(TB) leukemia', '17.4 µM'),
  ('COc1cc(-c2nc3ccccc3o2)cc(CN2CCCCC2)c1O', 'HL-60(TB) leukemia', '4.77 µM');

Here is the next item to consider.
Task: Provide GI50 value for the following compound: CCCCCCCCCCCCN=C(N)c1ccc(N2CCN(c3ccc(C(N)=NCCCCCCCCCCCC)cc3)CC2)cc1
Result: 2.15 µM

----------
# Tested on: K-562 leukemia
# test method notes: NCI tumour cell line growth inhibition, 48 h; in the data active = GI50 below about 0.43 µM; inactive = the rest
Your response should consist of one outcome taken from active, inactive

# count of solved cases: 5
INSERT INTO assay_data (molecule, answer_label) VALUES
  ('CCCCCCCCCCCCN=C(N)c1ccc(N2CCN(c3ccc(C(N)=NCCCCCCCCCCCC)cc3)CC2)cc1', 'inactive'),
  ('CCCCOc1ccc(/C=N/Nc2cc(C)nc3ccc(Br)cc23)cc1', 'inactive'),
  ('O=C(/C=C/c1ccccn1)c1ccc(OCc2nnc(-c3ccc(Cl)cc3)o2)cc1', 'inactive'),
  ('CCN(CC)CCN1c2nc3ccccc3cc2Sc2cc3ccccc3nc21', 'inactive'),
  ('CCOc1ccc(C(C[N+](=O)[O-])Sc2ccccc2N)cc1 (stereo not given)', 'inactive');

Task: Recorded call for Cn1cc(C2=C(c3cn(CCCN)c4ccccc34)C(=O)NC2=O)c2ccccc21 ?
Result: inactive

Task: Assay outcome for COc1cc(-c2nc3ccccc3o2)cc(CN2CCCCC2)c1O : what was it?
Result: inactive

Task: What did this assay record as the result for COc1ccc(S(=O)(=O)Nc2c(/C=C\c3cc(OC)c(OC)c(OC)c3)ccc(OC)c2O)cc1 ?
Result: active

Task: In this assay, the call recorded for C#CC1(O)C(COP(=O)(O)OCC2OC(n3cc(F)c(=O)[nH]c3=O)CC2O)OC(n2ccc(N)nc2=O)C1O (stereo not given) was what?
Result: active

Task: Can you look up the reported call for Cc1nc2sc3c(N)ncnc3c2c(C)c1C for me?
Result: inactive

----------
# Tested on: SF-295 CNS
# test method notes: NCI tumour cell line growth inhibition, 48 h
In this section we review reported TGI values for a set of molecules.

INSERT INTO measurements (molecule, measured_attribute, endpoint_result) VALUES
  ('CCN(CC)c1ccc(-c2cc(-c3cc(OC)c(OC)c(OC)c3)nc(N3CCC(O)CC3)c2C#N)cc1', 'TGI', '0.435 µM'),
  ('CCS(=O)c1c2cc(OC)ccc2nc2ccc(OC)cc12 (stereo not given)', 'TGI', '63.4 µM'),
  ('N#C/C(=C1\OC(=N)C(c2ccccc2)C1=O)c1ccccc1 (stereo not given)', 'TGI', '> 100 µM');

Now consider a different molecule.
Task: Provide TGI, recorded with SF-295 CNS, of C[C@]12CC[C@H](O)CC1=CC[C@@H]1C2CC[C@]2(C)C(=O)NC(=O)CC12 (stereo not given in full)
Result: > 100 µM

----------
Attribute: TGI
# Tested on: SK-MEL-28 melanoma
# test method notes: NCI tumour cell line growth inhibition, 48 h

Task: Specify TGI for CN(C)c1ccc(/C=N/c2nc3cc4sc(/N=C/c5ccc(N(C)C)cc5)nc4cc3s2)cc1 and stop.
Result: > 100 µM

Task: Supply recorded TGI for C/C=C/C(=O)[O-].C/C=C/C(=O)[O-].N.N.N.N.[Co+3].[O-][Cl+3]([O-])([O-])[O-] here.
Result: > 100 µM

Task: Write down TGI measured for item CS(=O)(=O)c1cccc(Nc2ncc3cc(-c4ccccc4Cl)ccc3n2)c1
Result: > 33.3 µM

Task: Assign TGI to the following record: O=S(=O)(O)c1ccc2c(N=Nc3ccc(S(=O)(=O)O)c4ccccc34)c(O)c(S(=O)(=O)O)cc2c1
Result: > 100 µM

Task: Give the reported value of TGI for this record: CCOC(=O)CCC(NC(=O)c1ccc(Oc2nc3c(N)cc(C(F)(F)F)cc3nc2-c2ccccc2)cc1)C(=O)OCC (stereo not drawn)
Result: > 100 µM

----------
# System: KM12 colon
# test method notes: NCI tumour cell line growth inhibition, 48 h
Let's look at some compounds and their measured log10(TGI).
Use the decimal logarithm of TGI (µM).

Examples with answers:
INSERT INTO results (compound, assayed_target, endpoint_result) VALUES
  ('O=C(CSCC(=O)N/N=C\c1ccc(O)c(O)c1O)N/N=C\c1ccc(O)c(O)c1O', 'KM12 colon', 1.57),
  ('C=CCNC1=C2C[C@@H](C)C[C@H](OC)[C@H](O)[C@@H](C)/C=C(\C)[C@H](OC(N)=O)[C@@H](OC)/C=C\C=C(/C)C(=O)NC(=CC1=O)C2=O', 'KM12 colon', -0.63),
  ('Oc1[nH]c2ccccc2c1/C=c1/ccc2c(c1)N=C(c1ccc(C(F)(F)F)cc1)N=2', 'KM12 colon', 1.10);

Task: Let me know recorded log10(TGI) for CN(C)CCCNC(=O)c1cc(NS(=O)(=O)c2ccc3c(c2)C(=O)c2ccccc2C3=O)cn1C , thanks.
Result: 1.61

Task: Identify measured log10(TGI) corresponding to S=C(N/N=C/c1ccccn1)N1CC2CCC(CC2)C1
Result: 0.89

Task: Assign log10(TGI) to the following record: Nc1ncc(-c2ccc3ncnc(N4CCc5ccc(Cl)cc54)c3c2)cc1C(F)(F)F
Result: 1.68

Task: Quote log10(TGI) reported for CCOc1ccc(C(C[N+](=O)[O-])Sc2ccccc2N)cc1 (stereo not given) please.
Result: 1.01

Task: Check the records and state log10(TGI) for C=C1C(=O)O[C@H]2[C@H]1CC/C(COC(=O)/C=C\C(=O)NCc1ccc(Cn3c(=O)sn(CCI)c3=O)cc1)=C\CC[C@@]1(C)O[C@@H]21
Result: 1.39

Task: Please give measured log10(TGI) of the following entry: O=c1oc2ccccc2c(O)c1C(c1ccc(-c2ccccc2)cc1)c1c(O)c2ccccc2oc1=O
Result: 1.58

----------
# Test system: HT29 colon
# test method notes: NCI tumour cell line growth inhibition, 48 h
Quick reference: GI50 of the listed items.

Past entries and their recorded results:
INSERT INTO measurements (molecule, endpoint_result) VALUES
  ('Clc1cccc(CNc2c3ccccc3nc3ccccc23)c1', '1980 nM'),
  ('Oc1[nH]c2ccccc2c1/C=c1/ccc2c(c1)N=C(c1ccc(C(F)(F)F)cc1)N=2', '1610 nM'),
  ('COc1ccc(C(=O)c2cc3c(N)c(C(=O)Nc4cccc(Br)c4C)sc3nc2C)cc1', '50.9 nM'),
  ('C/C=C/C(=O)[O-].C/C=C/C(=O)[O-].N.N.N.N.[Co+3].[O-][Cl+3]([O-])([O-])[O-]', '> 100000 nM');

Task: Tell me its GI50 given CCCCCCCCCCCCN=C(N)c1ccc(N2CCN(c3ccc(C(N)=NCCCCCCCCCCCC)cc3)CC2)cc1 as the entry.
Result: 5680 nM

Task: Identify measured GI50 associated with CCC(=O)N1C/C(=C/c2ccc(Br)cc2)C(=O)/C(=C/c2ccc(Br)cc2)C1
Result: 102 nM

Task: Look up and report measured GI50 for this entry: Nc1ncc(-c2ccc3ncnc(N4CCc5ccc(Cl)cc54)c3c2)cc1C(F)(F)F
Result: 1830 nM

Task: Tell me measured GI50 for CCC(C)C1=C(O)[N+]2([O-])Oc3ccc(C4=C(O)C(=O)C(c5ccc(O)cc5)=C(O)C4=O)cc3OC2(C(C)CC)C(=O)N1O (stereo not drawn) please.
Result: 31400 nM

Task: Indicate its recorded GI50; the molecule in question is O=C(Nc1cc(F)c(F)cc1C(=O)O)c1ccc(-n2ccnc2)nn1
Result: > 100000 nM

----------
# Tested on: ACHN renal
# test method notes: NCI tumour cell line growth inhibition, 48 h
measured attribute: TGI (µM)
Give a bare numeral; the unit µM is implied.

INSERT INTO results (compound, measured_attribute, endpoint_result) VALUES
  ('Nc1nc(Cl)c2ncn(Cc3cccc(CCl)c3)c2n1', 'TGI', 12.4);

Please examine the following record next.
Task: Provide TGI value for the following compound: COC1C=COC2(C)Oc3c(C)c(O)c4c(O)c(c(C5SCCS5)c(O)c4c3C2=O)NC(=O)/C(C)=C\C=CC(C)C(O)C(C)C(O)C(C)C(OC(C)=O)C1C (centres undefined)
Result: 10.7

Data credit: PubChem BioAssay (NCI)
